- TARGET OR TEST SYSTEM: MMP-13 (Homo sapiens, UniProt P45452)
- Construct: made in house; host or cells: baculovirus / insect cells
- MEASUREMENT DESCRIPTION: MMP-13 inhibition (in vitro Ki)
- Type: biochemical
- TEST PARAMETERS: Table 8; read-out: MMP-13 Ki
Counter-ions that a name gives are not always drawn.
EXPERIMENTAL READOUT: Ki (nM)

> print(dat)
                                   molecule  experimental.readout  readout.value
1  O=C(NO)C1(S(=O)(=O)N2CCC(OCCCCCC(F)(F)C(F)(F)F)CC2)CCOCC1 [Example A50]                    Ki            0.6
2  CCCCCCCCOC1CCN(S(=O)(=O)C2(C(=O)NO)CCOCC2)CC1 [Example A36B]                    Ki           0.63
3  O=C(NO)C1(S(=O)(=O)N2CCC(c3ccc(OCC(F)(F)C(F)F)cn3)CC2)CCOCC1 [Example A59, Hydrochloride]                    Ki           0.62
4  O=C(NO)C1(S(=O)(=O)N2CCC(OCCCCCCC(F)(F)F)CC2)CCOCC1 [Example A48]                    Ki           1.13

[I] O=C(NO)C1(S(=O)(=O)N2CCN(c3ccc(CCCC(F)(F)F)c(F)c3)CC2)CCN(C2CC2)CC1 [Example A62, Hydrochloride]
[II] CC(C)CCCCCOC1CCN(S(=O)(=O)C2(C(=O)NO)CCOCC2)CC1 [Example A36F]
Prompt: Select one. Lower Ki: I or II Response format: the label of the selected entry.
Response: I

* * *

- TARGET OR TEST SYSTEM: MMP-14 (Homo sapiens)
- Construct: The catalytic domain enzyme was expressed in E. coli inclusion bodies, solubilized in urea; made in house
- MEASUREMENT DESCRIPTION: In vitro MMP inhibition, Ki determination (fluorogenic substrate II)
- Assay type: biochemical
- TEST PARAMETERS: value outside parentheses; read-out: MMP-14 Ki
pKi: −log10 of the molar value.
compounds and their reported pKi

> print(dat)
                            chemical.string  readout.value
1  CCCCCc1ccc(-c2cnc(N3CCN(S(=O)(=O)C4(C(=O)NO)CCOCC4)CC3)s2)cc1           5.49
2  O=C(NO)C1(S(=O)(=O)N2CCN(c3ccc(CCCC(F)(F)F)cc3F)CC2)CCOCC1         < 5.00
3  CCCCOc1ccc(N2CCN(S(=O)(=O)C3(C(=O)NO)CCN(c4ccccc4)CC3)CC2)cc1         < 5.00
4  Cc1cc(N2CCN(S(=O)(=O)C3(C(=O)NO)CCOCC3)CC2)ccc1OC(C)C         < 5.00
5  Cc1cccc(-c2csc(N3CCN(S(=O)(=O)C4(C(=O)NO)CCOCC4)CC3)n2)c1         < 5.00

Prompt: For the compound shown here, O=C(NO)C1(S(=O)(=O)N2CCC(c3ccc(OC(F)(F)C(F)(F)F)cc3)CC2)CCOCC1 , give the reported pKi.
Response: < 5.00

Prompt: For the compound shown here, O=C(NO)C1(S(=O)(=O)N2CCC(COCC(F)(F)C(F)(F)C(F)(F)C(F)F)CC2)CCOCC1 , give the reported pKi.
Response: < 5.00

* * *

molecules and their reported pKi
- TARGET OR TEST SYSTEM: MMP-14 (Homo sapiens, UniProt P50281)
- Construct: The catalytic domain enzyme was expressed in E. coli inclusion bodies, solubilized in urea; made in house
- MEASUREMENT DESCRIPTION: In vitro MMP inhibition, Ki determination (fluorogenic substrate II)
- Type: biochemical
- TEST PARAMETERS: value not in parenthesis; read-out: MMP-14 Ki
pKi: −log10 of the molar value.

These recorded examples may help you get a feel for the data.
> print(dat)
                            chemical.string  experimental.readout  readout.value
1  CCCCOc1ccc(N2CCN(S(=O)(=O)C3(C(=O)NO)CCN(c4ccc(C#N)cc4)CC3)CC2)cc1                   pKi         < 5.00
2  COCCN1CCC(C(=O)NO)(S(=O)(=O)N2CCN(c3ccc(OCC(F)(F)C(F)(F)F)cc3)CC2)CC1                   pKi         < 5.00
3  CCCCCc1ccc(N2CCN(S(=O)(=O)C3(C(=O)NO)CCN(c4ccc(C)cc4)CC3)CC2)cc1                   pKi         < 5.00
4  CCCCOc1ccc(N2CCN(S(=O)(=O)C3(C(=O)NO)CCN(C(=O)N4CCOCC4)CC3)CC2)cc1                   pKi         < 5.00

Please look at the following molecule next.
Prompt: For the molecule shown here, CCCCCc1ccc(N2CCN(S(=O)(=O)C3(C(=O)NO)CCOCC3)CC2)nn1 , give the reported pKi.
Response: < 5.00

* * *

- TARGET OR TEST SYSTEM: MMP-13 (Homo sapiens, UniProt P45452)
- Construct: made in house; host or cells: baculovirus / insect cells
- MEASUREMENT DESCRIPTION: In vitro MMP inhibition, Ki determination (fluorogenic substrate II)
- Assay type: biochemical
- TEST PARAMETERS: value not in parenthesis; read-out: MMP-13 Ki
EXPERIMENTAL READOUT: Ki (nM)

These recorded examples may help you get a feel for the data.
> print(dat)
                                   compound  experimental.readout  unit.spec  readout.value
1  CCCCCc1ccc(N2CCN(S(=O)(=O)C3(C(=O)NO)CCN(S(C)(=O)=O)CC3)CC2)cc1 [Example 237]                    Ki         nM           1.69
2  CC(C)(C)N1CCC(C(=O)NO)(S(=O)(=O)N2CCN(c3ccc(OCCCC(F)(F)F)cc3F)CC2)CC1 [Example 116]                    Ki         nM           1.21
3  O=C(NO)C1(S(=O)(=O)N2CCN(c3ccc(C(F)(F)F)cn3)CC2)CCOCC1 [Example 94]                    Ki         nM           0.82
4  COCCN1CCC(C(=O)NO)(S(=O)(=O)N2CCN(c3ccc(OCC(F)(F)F)cc3)CC2)CC1 [Example 119]                    Ki         nM           0.79

[A] CCCCC(=O)c1ccc(N2CCN(S(=O)(=O)C3(C(=O)NO)CCN(CCOC)CC3)CC2)cc1 [Example 177]
[B] CCCCc1ccc(N2CCN(S(=O)(=O)C(C)C(=O)NO)CC2)nc1 (stereo not shown) [Example 217]
[C] CCc1ccc(N2CCN(S(=O)(=O)C3(C(=O)NO)CCN(CCOC)CC3)CC2)cc1 [Example 193]
Prompt: Give the ascending ranking of the items by reported Ki. Write out the labels following the order that was asked for.
Response: A, B, C
(A: 0.847 nM, B: 1.21 nM, C: 1.77 nM)

* * *

- TARGET OR TEST SYSTEM: MMP-9 (Homo sapiens)
- Construct: made in house; host or cells: MMP-9-transfected HT1080 cells (spent media)
- Sequence (P14780 107-707 limits assumed): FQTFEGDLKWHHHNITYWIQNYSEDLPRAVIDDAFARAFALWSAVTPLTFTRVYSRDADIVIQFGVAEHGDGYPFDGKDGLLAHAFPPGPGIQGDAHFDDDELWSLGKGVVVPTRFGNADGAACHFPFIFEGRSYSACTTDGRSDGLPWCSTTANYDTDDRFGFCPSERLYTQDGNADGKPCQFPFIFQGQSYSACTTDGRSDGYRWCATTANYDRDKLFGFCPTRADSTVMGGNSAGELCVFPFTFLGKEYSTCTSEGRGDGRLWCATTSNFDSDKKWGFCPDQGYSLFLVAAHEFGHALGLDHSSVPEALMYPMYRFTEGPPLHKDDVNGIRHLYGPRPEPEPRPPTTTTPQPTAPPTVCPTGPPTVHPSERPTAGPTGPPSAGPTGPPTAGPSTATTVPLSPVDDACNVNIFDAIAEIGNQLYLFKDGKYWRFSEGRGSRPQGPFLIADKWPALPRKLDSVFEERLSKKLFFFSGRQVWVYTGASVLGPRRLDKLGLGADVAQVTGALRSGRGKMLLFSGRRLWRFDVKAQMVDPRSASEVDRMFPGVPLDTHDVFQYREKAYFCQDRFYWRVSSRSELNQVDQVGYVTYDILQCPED
- MEASUREMENT DESCRIPTION: MMP-9 inhibition (in vitro Ki)
- Assay type: biochemical
- TEST PARAMETERS: Table 9; read-out: MMP-9 Ki (IC-50)
pKi: −log10 of the molar value.
EXPERIMENTAL READOUT: pKi

> print(dat)
                            chemical.string  readout.value
1  O=C(NO)C1(S(=O)(=O)N2CCN(c3nnn(Cc4ccccc4)n3)CC2)CCOCC1           9.03
2  CCN1CCC(C(=O)NO)(S(=O)(=O)N2CCC(c3ccc(CCC(F)(F)C(F)(F)F)cn3)CC2)CC1           8.88

[a] O=C(NO)C(CC1CC1)(CC1CC1)S(=O)(=O)N1CCC(c2ccc(CCC(F)(F)F)cn2)CC1
[b] O=C(NO)C1(S(=O)(=O)N2CCC(c3ccc(CCC(F)(F)C(F)(F)F)cn3)CC2)CCC1
[c] CNC(=O)CCCCC1CCN(S(=O)(=O)C2(C(=O)NO)CCOCC2)CC1
Prompt: Give the ascending ranking of the items by reported pKi. Write out the labels following the order that was asked for.
Response: c, a, b

* * *

- TARGET OR TEST SYSTEM: MMP-14 (Homo sapiens)
- Construct: The catalytic domain enzyme was expressed in E. coli inclusion bodies, solubilized in urea; made in house
- MEASUREMENT DESCRIPTION: MMP-14 inhibition (in vitro Ki)
- Type: biochemical
- TEST PARAMETERS: Table 8; read-out: MMP-14 Ki
EXPERIMENTAL READOUT: Ki

These recorded examples may help you get a feel for the data.
> print(dat)
                                   molecule  readout.value
1  O=C(NO)C1(S(=O)(=O)N2CCC(CCCCc3nc(-c4ccc(OC(F)(F)F)cc4)no3)CC2)CCOCC1        > 10 µM
2  CCCCOCCC1CCN(S(=O)(=O)C2(C(=O)NO)CCOCC2)CC1        > 10 µM

Prompt: For the molecule shown here, CCCCOCCOC1CCN(S(=O)(=O)C2(C(=O)NO)CCOCC2)CC1 [Example A36H] , give the reported Ki.
Response: > 10 µM

Where do the numbers come from? From patent US20050209278A1.
